- Test system: FXR:RXRa (NR concentration 270 nM, RXRa partner concentration 90 nM)
- TEST_PROTOCOL: PBM binding z-score (relative to random genomic background probes); higher = stronger binding; sequences stand for … in GC…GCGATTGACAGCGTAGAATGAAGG
Each record gets a class by PBM binding z-score: low end: < 0.9; middle: ≥ 0.9 and < 4; high end: ≥ 4

>  <SEQUENCE_CODE>
TCAGTCAGGTGAAGGTAACTCAGGTACGCAGTCG

>  <TARGET_ENTITY>
FXR:RXRa (NR concentration 270 nM, RXRa partner concentration 90 nM)

>  <CLASS_ASSIGNMENT>
middle

$$$$
>  <SEQUENCE_CODE>
CGAACTAGGTCATTGACAGGATAGTGAATAGTAA

>  <TARGET_ENTITY>
FXR:RXRa (NR concentration 270 nM, RXRa partner concentration 90 nM)

>  <CLASS_ASSIGNMENT>
high end

$$$$
>  <SEQUENCE_CODE>
CGTCAAAGTTCAGCTAAGGTAACGTAAAGCACGC

>  <TARGET_ENTITY>
FXR:RXRa (NR concentration 270 nM, RXRa partner concentration 90 nM)

>  <CLASS_ASSIGNMENT>
high end

$$$$
>  <SEQUENCE_CODE>
CCGACTGGGGCATAAAGGTTACCATACCATCCGG

>  <TARGET_ENTITY>
FXR:RXRa (NR concentration 270 nM, RXRa partner concentration 90 nM)

>  <CLASS_ASSIGNMENT>
low end

$$$$
>  <SEQUENCE_CODE>
TCATATATGTAAATGCTAGGTGAAAGTCCGATCT

>  <TARGET_ENTITY>
FXR:RXRa (NR concentration 270 nM, RXRa partner concentration 90 nM)

>  <CLASS_ASSIGNMENT>
low end

$$$$
>  <SEQUENCE_CODE>
CCTGCTAGGTCATGGTGAGCTAATCTACAGTATG

>  <TARGET_ENTITY>
FXR:RXRa (NR concentration 270 nM, RXRa partner concentration 90 nM)

>  <CLASS_ASSIGNMENT>
middle

$$$$
>  <SEQUENCE_CODE>
CCAGACAGGTGAGAAGGTAACTAAGCCTCGATTA

>  <TARGET_ENTITY>
FXR:RXRa (NR concentration 270 nM, RXRa partner concentration 90 nM)

>  <CLASS_ASSIGNMENT>
low end

$$$$
>  <SEQUENCE_CODE>
TCGAGTTGGTTACCAATGGGGCATTCAGCTTTCT

>  <TARGET_ENTITY>
FXR:RXRa (NR concentration 270 nM, RXRa partner concentration 90 nM)

>  <CLASS_ASSIGNMENT>
low end

$$$$
>  <SEQUENCE_CODE>
ATCCCTAGGTAAAGTTCAGTGAAAGATCGATAGA

>  <TARGET_ENTITY>
FXR:RXRa (NR concentration 270 nM, RXRa partner concentration 90 nM)

>  <CLASS_ASSIGNMENT>
middle

$$$$
>  <SEQUENCE_CODE>
CATACAGGGTCACCTAGGCCAGAGTAGGGACGGC

>  <TARGET_ENTITY>
FXR:RXRa (NR concentration 270 nM, RXRa partner concentration 90 nM)

>  <CLASS_ASSIGNMENT>
high end

$$$$
>  <SEQUENCE_CODE>
TAGCCTAGGTAATTCAGGGGCCAGTATAGAAAGC

>  <TARGET_ENTITY>
FXR:RXRa (NR concentration 270 nM, RXRa partner concentration 90 nM)

>  <CLASS_ASSIGNMENT>
low end

$$$$
>  <SEQUENCE_CODE>
ACTAGTTGGTCAGCCGAGGTCACACACAATTCGG

>  <TARGET_ENTITY>
FXR:RXRa (NR concentration 270 nM, RXRa partner concentration 90 nM)

>  <CLASS_ASSIGNMENT>
middle

$$$$
>  <SEQUENCE_CODE>
AGAATGAGGTTAAGATCAGGGACACAGAATACAT

>  <TARGET_ENTITY>
FXR:RXRa (NR concentration 270 nM, RXRa partner concentration 90 nM)

>  <CLASS_ASSIGNMENT>
middle

$$$$
>  <SEQUENCE_CODE>
CCGACTGGGGCAAAGGTTACTATACTCAGTACGA

>  <TARGET_ENTITY>
FXR:RXRa (NR concentration 270 nM, RXRa partner concentration 90 nM)

>  <CLASS_ASSIGNMENT>
middle

$$$$
>  <SEQUENCE_CODE>
CCTCGGAGGACAAAAGGTCAGAGCTGTCCGCTTT

>  <TARGET_ENTITY>
FXR:RXRa (NR concentration 270 nM, RXRa partner concentration 90 nM)

>  <CLASS_ASSIGNMENT>
middle

$$$$
>  <SEQUENCE_CODE>
GCTTTCGGGTCAAAGGTTATAGCATGAATAGAAT

>  <TARGET_ENTITY>
FXR:RXRa (NR concentration 270 nM, RXRa partner concentration 90 nM)

>  <CLASS_ASSIGNMENT>
high end

$$$$
>  <SEQUENCE_CODE>
TGAATAAGGTTAAAGATCAGGGAACGTGGCGTCG

>  <TARGET_ENTITY>
FXR:RXRa (NR concentration 270 nM, RXRa partner concentration 90 nM)

>  <CLASS_ASSIGNMENT>
middle

$$$$
